Source listed as PubChem BioAssay (NCI).

System: OVCAR-3 ovarian
TEST SUMMARY: NCI-60 one-dose screen, 48 h
RECORDED CONDITIONS: 10 µM unless noted
The panel holds about 83,000 compounds, 20% with a hit somewhere; the sample as a whole holds those more often. Activity calls are given as the source filed them. The calls were made as follows: active = growth percent below 10; inactive = the rest.
Classes to choose from: label 1 = active, label 0 = inactive

Examples with answers:
- Cc1ccc(-n2c(/C=C3\C(=O)Nc4ccccc43)ccc2CO)cc1: label 0
- Cc1nn(-c2ccccc2)c2ncnc(N/N=C/c3cccc(O)c3)c12: label 0
- COc1ccc(C2c3sc4c(C)cccc4c3Oc3nc(CC(=O)Nc4ccccc4)[nH]c(=O)c32)cc1 (centres undefined): label 0
- COc1ccc(-c2nc3ccc(-c4nnc(SCC(=O)Nc5ccc(C(=O)/C=C/c6ccc(Cl)cc6)cc5)o4)cc3[nH]2)cc1: label 0
- NC(N)=Nc1ccc(Oc2cccc(NC(N)=Nc3ccc(I)cc3F)c2)cn1: label 0
- O=C(CN1CCN(c2cc(=O)[nH]c3ccc(F)cc23)CC1)Nc1ccc(Cl)cc1: label 0

Hey, what did the test say about N=c1c2cc(-c3ccccc3)oc2ncn1/N=C/c1ccc(Cl)cc1 ?
label 1

Hey, what did the test say about CNC(=O)c1c(NC(=O)c2ccccc2C(F)(F)F)sc2c1CCC(=O)C2 ?
label 0

Hey, what did the test say about O=C1Nc2ccccc2/C1=C/c1ccc(CO)n1-c1ccc(Cl)cc1 ?
label 0

Hey, what did the test say about COc1cc(-c2nn(C(C)(C)C)cc2-c2ccnc(NCCCNS(=O)(=O)c3ccc(Cl)cc3)n2)ccc1Cl ?
label 0

Hey, what did the test say about Nc1cc(F)ccc1NC(=O)c1ccc(NC(=O)C/C=C/c2cccnc2)cc1 ?
label 0

Hey, what did the test say about O=S(=O)(NCCNc1nccc(-n2cnc3ccccc32)n1)c1ccc(Cl)cc1 ?
label 0

Hey, what did the test say about Cc1cc2nc(C(Cl)Cl)nc(-c3cccs3)n2n1 ?
label 1

Hey, what did the test say about CC(C)(C)c1ccc(C(=O)Nc2sc3c(c2C(N)=O)CC/C(=N\O)C3)cc1 ?
label 0

Hey, what did the test say about CCCC(=O)NC(c1cccnc1)c1cc(C(C)(C)C)c2cccnc2c1O (centres undefined) ?
label 0

Hey, what did the test say about COc1cc2c(cc1OC)C(Sc1ccc(F)cc1)c1c(nc(N)c(C#N)c1N)O2 (centres undefined) ?
label 1

====

Tested on: HT29 colon
TEST SUMMARY: NCI-60 one-dose screen, 48 h (100 = growth as untreated, 0 = no growth, -100 = all killed)
RECORDED CONDITIONS: 10 µM unless noted
This is part of a sample that, as a whole, favours compounds with a hit. Of some 83,000 tested, about 20% had one in any assay.
Parameter threshold = 60%. Response is criterion met when growth meets or exceeds it, else criterion not met.

Does the compound COc1ccc(OC)c(-c2nc(SCC(=O)c3ccc(Br)cc3)nc(Nc3ccc(S(N)(=O)=O)cc3)c2C#N)c1 have recorded growth that is 60% or more?
criterion not met

====

System: NCI/ADR-RES ovarian
TEST SUMMARY: NCI-60 one-dose screen, 48 h (100 = growth as untreated, 0 = no growth, -100 = all killed)
RECORDED CONDITIONS: 10 µM unless noted
Compounds without any hit were thinned out: in the full panel of roughly 83,000, 20% have a hit.
Returns: string. Value is t if measured growth is below 90%, and f if it is greater than or equal to it.

Examples with answers:
- C[C@H]1c2[nH]c3ccccc3c2C[C@H]2C(=O)N(CCCCCCC(=O)NO)CC(=O)N21: f
- COC(=O)C[Se]C(=O)Cc1c(C)n(C(=O)c2ccc(Cl)cc2)c2ccc(OC)cc12: t
- CS(=O)(=O)c1ccc(-c2nn(-c3ccccc3)cc2/C=N/NC(=O)c2nc(N)n[nH]2)cc1: f
- CCOC(=O)C(=O)/C(=C\c1ccc(Cl)cc1)C(=O)N1C(=S)NC(=O)C1CC(C)C (stereo not given): f
- N#Cc1c(-c2cccs2)cc(-c2cnccn2)nc1SCC(=O)Nc1ccc(Br)cc1: t
- CCCCCCCn1cc2c(N[C@H](C)c3ccccc3)ncnc2n1: f

growth strictly < 90% for this compound? N#C/C(=C\c1ccc(-c2ccc(Cl)cc2Cl)o1)c1ccc(F)cc1
f

growth strictly < 90% for this compound? COc1ccccc1-n1cc(C#N)c(N)c1C(=O)c1ccc(Cl)cc1
t

growth strictly < 90% for this compound? C[C@@H](Nc1ncnc2ccc(-c3cnc(Cl)c(NS(C)(=O)=O)c3)cc12)c1ccccc1
t

growth strictly < 90% for this compound? N#Cc1ccccc1Cn1c2nc(=N)c3ccccc3c-2nc2ccccc21
t

growth strictly < 90% for this compound? O=S(=O)(NCCNc1nccc(-n2cnc3ccccc32)n1)c1ccc(Br)cc1
f

growth strictly < 90% for this compound? COc1c(N2CC3CCCNC3C2)c(F)cc2c(=O)c(C(=O)N/N=C/c3ccc4c(c3)OCO4)cn(C3CC3)c12 (stereo not given)
t

growth strictly < 90% for this compound? COc1cc(-c2nn(C(C)(C)C)cc2-c2ccnc(NCCCNS(=O)(=O)c3cccc(F)c3)n2)ccc1Cl
t

growth strictly < 90% for this compound? O=C(/C=C/c1ccc(F)cc1)c1ccc(O)cc1
f

growth strictly < 90% for this compound? NC(=O)c1c(NC(=O)c2ccc(F)cc2F)sc2c1CCC(=O)C2
t

growth strictly < 90% for this compound? C#CCOc1ccc(/C=N\Nc2nc(-c3ccc(C)cc3)cs2)cc1OC
f

====

System: MDA-MB-231 breast
TEST SUMMARY: NCI-60 one-dose screen, 48 h
RECORDED CONDITIONS: 10 µM unless noted
Compounds without any hit were thinned out: in the full panel of roughly 83,000, 20% have a hit. Activity calls are given as the source filed them. The calls were made as follows: active = growth percent below 10; inactive = the rest.
Classes to choose from: active, inactive

Examples with answers:
- Cc1cc(C)c(N2C(=O)CC(Nc3ccc(Cl)cc3Cl)C2=O)c(C)c1 (centres undefined): inactive
- COc1cc(Cn2cc3c(c2)-c2onc(CN4CCCC4)c2CC3)cc(OC)c1OC: inactive
- NC(=O)c1c(NC(=O)c2ccc(F)cc2F)sc2c1CCC(=O)C2: inactive
- CCC1=Cc2cc(OC)ccc2OC12C=Cc1cc(OC)ccc1O2 (centres undefined): inactive
- O=C(Nc1nc2ccc([N+](=O)[O-])cc2s1)Nc1ccccc1Br: inactive
- Cc1[nH]c(C(=O)Nc2ccccc2OCc2cccc(C(=O)N3CCC[C@@H](N)C3)c2)c(Cl)c1Cl: active

Hey, what did the test say about COc1ccc(-c2nc3ccc(-c4nnc(SCC(=O)Nc5ccc(C(=O)/C=C/c6ccc(Cl)cc6)cc5)o4)cc3[nH]2)cc1 ?
inactive

Hey, what did the test say about O=C(CCC(=O)N1CCOCC1)OCCCCCCSc1ccc([N+](=O)[O-])c2nonc12 ?
active

Hey, what did the test say about O=c1[nH]c2ccccc2cc1CSc1ccccc1Nc1nccc(-c2ccc(Cl)cc2)n1 ?
inactive

====

System: SK-MEL-2 melanoma
TEST SUMMARY: NCI-60 one-dose screen, 48 h (100 = growth as untreated, 0 = no growth, -100 = all killed)
RECORDED CONDITIONS: 10 µM unless noted
The panel holds about 83,000 compounds, 20% with a hit somewhere; the sample as a whole holds those more often.
PROPERTY MEASURED: growth (%)
Please give a number only; it is taken to be in %.

• Cc1ccc(NC(=O)CNc2cc(C(N)=O)cc(F)c2C)c(Cl)c1 = 101

Using known records, supply growth for COc1cc(-c2nc(-c3ccccc3)[nH]c2-c2ccnc(NCCCNS(=O)(=O)c3cccc(F)c3)n2)ccc1Cl
43.5

Using known records, supply growth for COc1cc(-c2nc(SCCC(C)C)nc(NNC(=O)c3ccncc3)c2C#N)cc(OC)c1OC
101

Using known records, supply growth for O=C(CSc1nnc(-c2ccc(Cl)cc2)n1-c1ccccc1)Nc1ccc(Br)cc1
80.9

====

Test system: CCRF-CEM leukemia
TEST SUMMARY: NCI-60 one-dose screen, 48 h (100 = growth as untreated, 0 = no growth, -100 = all killed)
RECORDED CONDITIONS: 10 µM unless noted
About 83,000 compounds went through this panel and 20% of them were active in at least one assay; those are over-represented in the sample as a whole.
This listing pairs compounds with measured growth.
Please give a number only; it is taken to be in %.

Some solved cases for reference:
• O=C1CCCC2=C1C(c1c[nH]c3ccc(Br)cc13)Cc1cc(Br)ccc1N2 (centres undefined) = 6.67
• O=C(CCn1c[n+](CC(=O)c2ccc(-c3ccccc3)cc2)c2ccccc21)Nc1cccc2cccnc12 = 36.1

Now, please, on to the next compound.
Using known records, supply growth for CCN(CC)c1cn(-c2ccc(S(N)(=O)=O)cc2)nn1
106

====

This listing pairs compounds with measured growth.
Tested on: TK-10 renal
TEST SUMMARY: NCI-60 one-dose screen, 48 h (100 = growth as untreated, 0 = no growth, -100 = all killed)
RECORDED CONDITIONS: 10 µM unless noted
The panel holds about 83,000 compounds, 20% with a hit somewhere; the sample as a whole holds those more often.
Please give a number only; it is taken to be in %.

Some solved cases for reference:
* COc1ccc(CCOc2cc3c(cc2OC)CCN(C(=O)NCc2cocn2)C3c2ccc(C)cc2C)cc1 (stereo not drawn) | 49.8
* COc1cccc2c1CN(C(=O)c1ccc(O)c(C(=O)N3Cc4ccc(OCCC[P+](c5ccccc5)(c5ccccc5)c5ccccc5)cc4C3)c1)C2 | 116
* COC(=O)c1[nH]nc2c1C1(C(=O)c3cccc4cccc1c34)C(C#N)=C(N)O2 (stereo not drawn) | 122
* COc1ccc(OC)c(-c2nc(SCC(=O)c3ccc(Br)cc3)nc(Nc3ccc(S(N)(=O)=O)cc3)c2C#N)c1 | 96.3
* Cc1ccc(-c2cc3nc(C(Cl)Cl)nc(-c4cccs4)n3n2)cc1 | 141
* CC[C@@H](CO)Nc1ccc2ncc(C#Cc3cncc(C(=O)Nc4ccc(CN5CCN(C)CC5)c(C(F)(F)F)c4)c3)n2n1 | -53.5
* CCc1nn2c(C)cc(C)nc2c1Cc1ccc(/C=C/CN2CCN(CCOCCOCCN3CCN(C/C=C/c4ccc(Cc5c(CC)nn6c(C)cc(C)nc56)cc4)CC3)CC2)cc1 | 103
* NC(=O)c1cccc(-n2ccc3cc(NC(=O)Nc4ccc(N5CCOCC5)c(C(F)(F)F)c4)ccc32)n1 | -7.65
* O=C1CC(=O)N2CSCN(C(c3ccccc3)c3nc4ncncc4[nH]3)C2=N1 (stereo not drawn) | 106
* Nc1nc(N)c2c(n1)NC(c1ccc(C(F)(F)F)cc1)CC(c1ccc(Nc3nc(NCCO)nc(N4CCOCC4)n3)cc1)=N2 (stereo not drawn) | 97.5

Using known records, supply growth for COc1ccc([C@H]2[C@H](O)C(=O)N2c2cc(OC)c(OC)c(OC)c2)cc1F
86.2

Using known records, supply growth for COc1ccc(NC(=O)CSc2nnc(-c3ccc4nc(-c5ccc(OC)c(OC)c5)[nH]c4c3)o2)cc1OC
117

Using known records, supply growth for Clc1cccc(/C=N/Nc2nc(N/N=C/c3cccc(Cl)c3Cl)nc(N3CCCCC3)n2)c1Cl
91.2

Using known records, supply growth for N#C/C(=C\c1ccc(-c2ccc(Cl)cc2Cl)o1)c1ccc(F)cc1
138
